# targetSystem: human PAH with the R408W mutation (A375 R408W cells) (Homo sapiens, UniProt P00439, R408W)
# Construct: expressed in transfected cells
# Sequence (P00439 whole entry R408W): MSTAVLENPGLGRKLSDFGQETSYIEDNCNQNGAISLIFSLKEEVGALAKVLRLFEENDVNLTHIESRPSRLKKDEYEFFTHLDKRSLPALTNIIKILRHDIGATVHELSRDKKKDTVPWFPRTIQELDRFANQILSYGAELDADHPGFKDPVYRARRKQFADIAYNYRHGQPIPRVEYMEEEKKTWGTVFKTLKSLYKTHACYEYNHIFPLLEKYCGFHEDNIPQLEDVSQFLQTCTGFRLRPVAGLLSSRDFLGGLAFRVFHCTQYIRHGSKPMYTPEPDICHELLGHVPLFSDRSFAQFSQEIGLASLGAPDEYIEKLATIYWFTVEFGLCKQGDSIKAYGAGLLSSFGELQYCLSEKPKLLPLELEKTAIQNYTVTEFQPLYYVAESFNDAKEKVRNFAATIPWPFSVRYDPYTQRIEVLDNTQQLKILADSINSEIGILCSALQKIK
# assayText: Cell Based Phenylalanine Flux Assay
# assayContext: A375 R408W cells; 24 hrs with compound, then 20 μM sepiapterin and 800 μM 13C9,15N-Phenylalanine for 4 hours; 13C-Tyrosine by LC-MS; average where tested multiple times
endpointLabel: AC50

Problem: Respond only with AC50 recorded for Cc1ncoc1C(=O)N1CCc2[nH]cnc2[C@@H]1c1nc2ccccc2o1 [Example 794]
Solution: 1000 to 5000 nM

Problem: Respond only with AC50 recorded for O=C(c1cnn2cc(N3CCC(F)CC3)ccc12)N1CCc2[nH]cnc2[C@@H]1c1nc2c(F)cccc2o1 [Example 478]
Solution: ≥ 5000 nM

Problem: Respond only with AC50 recorded for O=C(c1oc(-c2cncnc2)nc1C(F)F)N1CCc2[nH]cnc2[C@H]1c1nc2cc(F)ccc2o1 [Example 406]
Solution: ≤ 500 nM

Problem: Respond only with AC50 recorded for Cn1ccc(-c2nnc(C(=O)N3CCc4[nH]cnc4[C@H]3c3nc4cccc(C(F)(F)F)c4o3)o2)n1 [Example 832]
Solution: ≤ 500 nM

Problem: Respond only with AC50 recorded for Cc1ccc2oc([C@@H]3c4nc[nH]c4CCN3C(=O)c3oc(C(C)(C)O)nc3C)nc2c1 [Example 331]
Solution: 500 to 1000 nM

Problem: Respond only with AC50 recorded for CC(C)(O)c1nc(C(F)F)c(C(=O)N2CCc3[nH]cnc3[C@@H]2c2nc3ccc(F)cc3o2)o1 [Example 188]
Solution: 1000 to 5000 nM

Problem: Respond only with AC50 recorded for C[C@@H](O)c1nc(C(F)F)c(C(=O)N2CCc3[nH]cnc3[C@@H]2c2nc3cc(F)ccc3o2)o1 [Example 152]
Solution: 1000 to 5000 nM

====

# targetSystem: human PAH with the R408W mutation (A375 R408W cells) (Homo sapiens, UniProt P00439, R408W)
# Construct: expressed in transfected cells
# assayText: Cell Based Phenylalanine Flux Assay
# assayContext: A375 R408W cells; 24 hrs with compound, then 20 μM sepiapterin and 800 μM 13C9,15N-Phenylalanine for 4 hours; 13C-Tyrosine by LC-MS; average where tested multiple times
endpointLabel: AC50

Examples from the recorded data:
compound: O=C(c1ccnn1C(F)(F)F)N1CCc2[nH]cnc2[C@@H]1c1nc2ccc(F)cc2o1 [Example 288]
endpointLabel: AC50
readoutValue: 1 to 5 µM

compound: COc1cc(F)cc2nc([C@H]3c4nc[nH]c4CCN3C(=O)c3oc(C(C)(C)O)nc3C(F)F)oc12 [Example 716]
endpointLabel: AC50
readoutValue: 1 to 5 µM

compound: COCc1ccc2c(C(=O)N3CCc4[nH]cnc4[C@@H]3c3nc4cccc(F)c4o3)cnn2c1 [Example 266]
endpointLabel: AC50
readoutValue: ≥ 5 µM

Consider now this further compound.
Problem: Respond only with AC50 recorded for Cn1cnc(-c2nc(C(F)F)c(C(=O)N3CCc4[nH]cnc4[C@H]3c3nc4ccccc4o3)o2)c1 [Example 786]
Solution: 0.5 to 1 µM

====

# targetSystem: human PAH with the R408W mutation (A375 R408W cells) (Homo sapiens, UniProt P00439, R408W)
# Construct: expressed in transfected cells
# assayText: Cell Based Phenylalanine Flux Assay
# assayContext: A375 cells expressing R408W PAH; 24 hrs with compound, then 20 μM sepiapterin and 800 μM 13C9,15N-Phenylalanine for 4 hours; 13C-Tyrosine by LC-MS; average where tested multiple times
endpointLabel: AC50

Examples from the recorded data:
compound: Cn1nc(C(F)F)nc1C(=O)N1CCc2[nH]cnc2C1c1nc2cc(F)ccc2o1 (stereo not shown)
targetSystem: human PAH with the R408W mutation (A375 R408W cells) (Homo sapiens, UniProt P00439, R408W)
AC50: 1 to 5 µM
--
compound: CC(C)(O)c1cc(C(=O)N2CCc3[nH]cnc3C2c2nc3ccc(F)cc3o2)no1 (stereo not shown)
targetSystem: human PAH with the R408W mutation (A375 R408W cells) (Homo sapiens, UniProt P00439, R408W)
AC50: ≥ 5 µM
--
compound: CN(C)CCOc1ccc2c(C(=O)N3CCc4[nH]cnc4C3c3nc4cc(F)ccc4o3)cnn2c1 (stereo not shown)
targetSystem: human PAH with the R408W mutation (A375 R408W cells) (Homo sapiens, UniProt P00439, R408W)
AC50: 1 to 5 µM

Problem: Respond only with AC50 recorded for N#Cc1ncoc1C(=O)N1CCc2[nH]cnc2C1c1nc2cc(F)ccc2o1 (stereo not shown)
Solution: ≥ 5 µM

Problem: Respond only with AC50 recorded for O=C([C@H]1CC1(F)F)N1CCc2[nH]cnc2[C@H]1c1nc2cc(F)ccc2o1 (single isomer, unassigned)
Solution: 1 to 5 µM

Problem: Respond only with AC50 recorded for Cc1cccc2nc(C3c4nc[nH]c4CCN3C(=O)c3ccnn3-c3ccccn3)oc12 (stereo not shown)
Solution: 1 to 5 µM

Problem: Respond only with AC50 recorded for Cc1cccc2nc(C3c4nc[nH]c4CCN3C(=O)c3nc(C(C)(C)C)nn3C)oc12 (stereo not shown)
Solution: 1 to 5 µM

Problem: Respond only with AC50 recorded for Cc1cccc2nc(C3c4nc[nH]c4CCN3C(=O)c3ccnn3C(C)C)oc12 (stereo not shown)
Solution: ≥ 5 µM

Problem: Respond only with AC50 recorded for O=C(CCc1cnco1)N1CCc2[nH]cnc2C1c1nc2ccc(F)cc2o1 (stereo not shown)
Solution: 1 to 5 µM

Problem: Respond only with AC50 recorded for CC(C)(O)c1nc(C(F)F)c(C(=O)N2CCCc3[nH]cnc3C2c2nc3cc(F)ccc3o2)o1 (stereo not shown)
Solution: 1 to 5 µM

Problem: Respond only with AC50 recorded for O=C(c1ccn(CC(F)F)n1)N1CCc2[nH]cnc2C1c1nc2c(F)cccc2o1 (stereo not shown)
Solution: 1 to 5 µM

Problem: Respond only with AC50 recorded for O=C(c1cnn2cc(CN3CC(F)C3)ccc12)N1CCc2[nH]cnc2[C@@H]1c1nc2cc(F)ccc2o1 (single isomer, unassigned)
Solution: ≥ 5 µM

Problem: Respond only with AC50 recorded for Cn1ncnc1C(=O)N1CCc2[nH]cnc2C1c1nc2c(F)ccc(F)c2o1 (stereo not shown)
Solution: 1 to 5 µM
